Ref: paper PMC9440176

Assay: DPPH. free radical scavenging assay
Give pIC50 for every item shown.
Convention used: pIC50 is expressed as -log10 of the molar concentration.

Sample CCCN1CC=C(c2c(OC)cc(OC)c3c2O/C(=C\c2ccc4ccccc4c2)C3=O)CC1 ; pIC50 observed: 3.88

Sample COc1cc(OC)c(C2=CCN(C(C)C)CC2)c2c1C(=O)/C(=C/c1ccc3ccccc3c1)O2 ; pIC50 observed: 3.89

Sample CCN1CC=C(c2c(OC)cc(OC)c3c2O/C(=C\c2ccc4ccccc4c2)C3=O)CC1 ; pIC50 observed: 3.85

Sample CCN1CC=C(c2c(OC)cc(OC)c3c2O/C(=C\c2ccccc2OC)C3=O)CC1 ; pIC50 observed: 3.66

Sample CCN1CC=C(c2c(OC)cc(OC)c3c2O/C(=C\c2ccc(OC)c(OC)c2)C3=O)CC1 ; pIC50 observed: 3.47

Sample COc1ccc(/C=C2\Oc3c(c(OC)cc(OC)c3C3=CCN(C(C)C)CC3)C2=O)cc1 ; pIC50 observed: 3.89

Sample CCCN1CC=C(c2c(OC)cc(OC)c3c2O/C(=C\c2ccc(N(C)C)cc2)C3=O)CC1 ; pIC50 observed: 3.93

Sample CCCN1CC=C(c2c(OC)cc(OC)c3c2O/C(=C\c2ccc(OC)c(OC)c2)C3=O)CC1 ; pIC50 observed: 4.05

----------
Give % inhibition on CDK2/cyclin A for every item shown.
Target: CDK2/Cyclin A (Homo sapiens, UniProt P24941)
Assay: CDK2/cyclin A inhibitory assay, Z'-LYTE FRET kinase assay
Type: biochemical
Settings: concentration of 100 micro molar; 1000 ng/ml kinase, 1000 µM ATP
Don't forget the unit after the number, please.

Sample COc1cc(OC)c(C2=CCN(C(C)C)CC2)c2c1C(=O)/C(=C/c1ccccc1C)O2 ; % inhibition on CDK2/cyclin A observed: 43.654%

Sample CCCN1CC=C(c2c(OC)cc(OC)c3c2O/C(=C\c2ccc4ccccc4c2)C3=O)CC1 ; % inhibition on CDK2/cyclin A observed: 16.089%

Sample CCN1CC=C(c2c(OC)cc(OC)c3c2O/C(=C\c2ccc(OC)c(OC)c2)C3=O)CC1 ; % inhibition on CDK2/cyclin A observed: 26.007%

Sample COc1cc(OC)c(C2=CCN(C(C)C)CC2)c2c1C(=O)/C(=C/c1ccccc1Br)O2 ; % inhibition on CDK2/cyclin A observed: 39.811%

Sample CCCN1CC=C(c2c(OC)cc(OC)c3c2O/C(=C\c2ccc(OC)c(OC)c2)C3=O)CC1 ; % inhibition on CDK2/cyclin A observed: 12.547%

Sample CCN1CC=C(c2c(OC)cc(OC)c3c2O/C(=C\c2ccc(Br)cc2)C3=O)CC1 ; % inhibition on CDK2/cyclin A observed: 27.236%

----------
Tested on: MCF-7 and HCT 116 cell lines
Test: MTT cytotoxicity, IC50 range stated over MCF-7 and HCT 116
Assay type: cell-based
Conditions: range over both cell lines; read-out: Cytotoxic activity IC50 range against MCF 7 and HCT 116
pIC50: −log10 of the molar value.
reported-metric: pIC50

Sample COc1cc(OC)c(C2=CCN(C)CC2)c2c1C(=O)/C(=C/c1ccccc1Br)O2 ; pIC50 observed: 4.36 to 4.67

----------
Experiment: DPPH. free radical scavenging assay
reported-metric: IC50

Sample COc1ccc(/C=C2\Oc3c(c(OC)cc(OC)c3C3=CCN(C)CC3)C2=O)cc1OC ; IC50 observed: 258 µM

Sample COc1cc(OC)c(C2=CCN(C)CC2)c2c1C(=O)/C(=C/c1ccccc1Br)O2 ; IC50 observed: 83.2 µM

Sample COc1cc(OC)c(C2=CCN(C(C)C)CC2)c2c1C(=O)/C(=C/c1ccccc1C)O2 ; IC50 observed: 284 µM

Sample COc1ccc(/C=C2\Oc3c(c(OC)cc(OC)c3C3=CCN(C(C)C)CC3)C2=O)cc1OC ; IC50 observed: 159 µM

Sample CCCN1CC=C(c2c(OC)cc(OC)c3c2O/C(=C\c2ccccc2Br)C3=O)CC1 ; IC50 observed: 159 µM

Sample COc1ccc(/C=C2\Oc3c(c(OC)cc(OC)c3C3=CCN(C)CC3)C2=O)cc1 ; IC50 observed: 98.2 µM

Sample COc1cc(OC)c(C2=CCN(C)CC2)c2c1C(=O)/C(=C/c1ccc(N(C)C)cc1)O2 ; IC50 observed: 154 µM

Sample O=C1O[C@H]([C@@H](O)CO)C(O)=C1O [Ascorbic acid, reference compound] ; IC50 observed: 18.5 µM

Sample CCCN1CC=C(c2c(OC)cc(OC)c3c2O/C(=C\c2ccc(Cl)cc2)C3=O)CC1 ; IC50 observed: 162 µM

Sample COc1cc(OC)c(C2=CCN(C(C)C)CC2)c2c1C(=O)/C(=C/c1ccccc1Br)O2 ; IC50 observed: 381 µM

Sample CCN1CC=C(c2c(OC)cc(OC)c3c2O/C(=C\c2ccc(Br)cc2)C3=O)CC1 ; IC50 observed: 94.7 µM

Sample O=c1c(O)c(-c2ccc(O)c(O)c2)oc2cc(O)cc(O)c12 [Quercetin, reference compound] ; IC50 observed: 31.4 µM

Sample COc1cc(OC)c(C2=CCN(C)CC2)c2c1C(=O)/C(=C/c1ccccc1)O2 ; IC50 observed: 151 µM

Sample COc1cc(OC)c(C2=CCN(C(C)C)CC2)c2c1C(=O)/C(=C/c1ccc(Cl)cc1)O2 ; IC50 observed: 183 µM

Sample COc1cc(OC)c(C2=CCN(C)CC2)c2c1C(=O)/C(=C/c1ccccc1C)O2 ; IC50 observed: 103 µM

Sample CCN1CC=C(c2c(OC)cc(OC)c3c2O/C(=C\c2ccc(Cl)cc2)C3=O)CC1 ; IC50 observed: 223 µM

Sample CCN1CC=C(c2c(OC)cc(OC)c3c2O/C(=C\c2ccccc2Br)C3=O)CC1 ; IC50 observed: 85.5 µM
